PROTOCOL DETAILS: clinical
CONDITION NOTES: human, in vivo, 10 mg
MEASUREMENT KIND: Tmax (h)
Dear colleague, please return just the value in h, with no unit written.

Challenge: Given `COC(=O)N[C@H](C(=O)N1CCC[C@H]1c1nc2cc(-c3csc4c(-c5ccc(-c6cnc([C@@H]7CCCN7C(=O)[C@H](NC(=O)OC)c7ccccc7)[nH]6)cc5)csc34)ccc2[nH]1)C(C)C` , state its recorded Tmax.
Response given: 3

###

PROTOCOL DETAILS: Phase I/IIa Groups C and D: pharmacokinetics after QD and BID dosing for 3 days in HCV-infected subjects
CONDITION NOTES: human, in vivo, 50 mg
Protocol: The phase I/IIa study was designed to evaluate safety and tolerability, pharmacokinetics (PK), food effect, and antiviral activity with regard to the Compound. The key safety parameters that were evaluated in the trial include adverse events (AEs), physical examination, vital signs, 12-lead electrocardiogram (ECG), and standard safety laboratory tests. The key antiviral activity parameters that were evaluated in the trial include changes in plasma HCV RNA and emergence of resistance mutations. […]
MEASUREMENT KIND: AUC(0-t)
Give the number first and the unit second.

Challenge: Given `COC(=O)N[C@H](C(=O)N1CCC[C@H]1c1nc2cc(-c3csc4c(-c5ccc(-c6cnc([C@@H]7CCCN7C(=O)[C@H](NC(=O)OC)c7ccccc7)[nH]6)cc5)csc34)ccc2[nH]1)C(C)C` , state its recorded AUC(0-t).
Response given: 384 ng·h/mL

###

PROTOCOL DETAILS: clinical
CONDITION NOTES: human, in vivo, 25 mg, t1/2
MEASUREMENT KIND: half-life (h)
Dear colleague, please return just the value in h, with no unit written.

Challenge: Given `COC(=O)N[C@H](C(=O)N1CCC[C@H]1c1nc2cc(-c3csc4c(-c5ccc(-c6cnc([C@@H]7CCCN7C(=O)[C@H](NC(=O)OC)c7ccccc7)[nH]6)cc5)csc34)ccc2[nH]1)C(C)C` , state its recorded half-life.
Response given: 20.8

###

PROTOCOL DETAILS: clinical
CONDITION NOTES: human, in vivo, 25 mg
MEASUREMENT KIND: half-life (h)
Dear colleague, please return just the value in h, with no unit written.

Challenge: Given `COC(=O)N[C@H](C(=O)N1CCC[C@H]1c1nc2cc(-c3csc4c(-c5ccc(-c6cnc([C@@H]7CCCN7C(=O)[C@H](NC(=O)OC)c7ccccc7)[nH]6)cc5)csc34)ccc2[nH]1)C(C)C` , state its recorded half-life.
Response given: 18

###

PROTOCOL DETAILS: clinical
CONDITION NOTES: human, in vivo, 1 mg
MEASUREMENT KIND: half-life (h)
Dear colleague, please return just the value in h, with no unit written.

Challenge: Given `COC(=O)N[C@H](C(=O)N1CCC[C@H]1c1nc2cc(-c3csc4c(-c5ccc(-c6cnc([C@@H]7CCCN7C(=O)[C@H](NC(=O)OC)c7ccccc7)[nH]6)cc5)csc34)ccc2[nH]1)C(C)C` , state its recorded half-life.
Response given: 13

###

PROTOCOL DETAILS: clinical
CONDITION NOTES: human, in vivo, 100 mg
MEASUREMENT KIND: half-life (min)
Dear colleague, please return just the value in min, with no unit written.

Challenge: Given COC(=O)N[C@H](C(=O)N1CCC[C@H]1c1nc2cc(-c3csc4c(-c5ccc(-c6cnc([C@@H]7CCCN7C(=O)[C@H](NC(=O)OC)c7ccccc7)[nH]6)cc5)csc34)ccc2[nH]1)C(C)C [the Compound] , state its recorded half-life.
Response given: 1140

Data provenance is patent US20150224085A1.
